This collection of values is drawn from patent US20220396616A1.

Exercise: for every item that follows, state its recorded mean fluorescence intensity.
ASSAYED SYSTEM: T1, human CLDN18.1 (human, UniProt P56856 1-261)
T1 construct: Full length, overexpressed on HEK293 cells; also called hCLDN18.1; human CLDN18.1-HEK293
T1 sequence (P56856 whole entry): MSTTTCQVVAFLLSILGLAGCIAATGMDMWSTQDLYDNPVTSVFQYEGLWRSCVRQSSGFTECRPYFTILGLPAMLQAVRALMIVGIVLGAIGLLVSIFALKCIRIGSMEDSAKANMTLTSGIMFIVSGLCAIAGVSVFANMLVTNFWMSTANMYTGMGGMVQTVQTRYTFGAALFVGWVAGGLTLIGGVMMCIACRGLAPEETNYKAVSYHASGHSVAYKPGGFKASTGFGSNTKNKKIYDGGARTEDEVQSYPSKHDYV
ASSAY COMMENT: flow cytometry, phage supernatant on hCLDN18.1-expressing HEK293 cells

Take a look at these entries with their results.
{"columns": ["BINDER", "PROPERTY MEASURED", "MEASURED"],
 "data": [
  ["A-2-3 (VHH) VHH: EVQLVESGGGLVQPGGSLRLSCAASGSIFNLPVMSWYRQAPGKQRELVAGISTGGTTNYGDSVKGRFTISRDNAKNTVYLQMNSLKPEDTAVYYCNVLVVSGIGSHLEVWG", "mean fluorescence intensity", "3260 MFI"],
  ["A18-1-64 (VHH) VHH: QVQLVESGGGLVQPGGSLRLSCAASGNIFRIDTMGWYRQAPGKQREFVAGISRGGSTNYAHSVKERFTISRDNAKNTMYLQMNSLKSEDTAGYYCNAQAWDPGTIRYLEVWGQGTLVTVSS", "mean fluorescence intensity", "3500 MFI"],
  ["A18-1-70 (VHH) VHH: QVQLVESGGGLVQPGGSLRLSCAASGNIFRIDTMGWYRQAPGKQRELVAGISRGGTTTYAHSVKERFTISRDNAKNTMYLQMNSLKSEDTAGYYCNAQAWDPGTFRYLEVWGQGTLVTVSA", "mean fluorescence intensity", "6230 MFI"]
]}

Would you mind giving mean fluorescence intensity for every binder in the list below?
1. A293-34 (VHH, also called candidate nanobody A293-34) VHH: QVQLQESGGGLVQPGGSLRLSCAASGTFFNIPVMGWYRQAPGKQRELVAGISTGGTTNYGDSVKGRFTISRDNAKNTVYLQMNSLKPEDTAVYYCNVLVISGIGSHLEVWG
2. A18-1-6 (VHH) VHH: EVQVQESGGGLVQPGGSLRLSCAASGSIFNIPVMSWYRQAPGKQRELVAGISTGGTTNYGDSVKGRFTISRDNAKTTVYLQMNSLKPEDTAVYYCNVLVISGIGSHLEVWG
3. A18-1-75 (VHH) VHH: EVQLVESGGGLVQPGGSLRLSCAASGNIFRIDTMVWYRQAPGKQRELVAGISRGGTTNYAHSVKGRFTISRDNAKNTMYLQMNSLKSEDTATYYCNAQAWDVGTIRYLEVWGQGTLVTVSA
4. A18-1-62 (VHH) VHH: QVQLVESGGGLVQPGGSLRLSCAASGTIFNIPVMGWYRQAPGKQRELVAGISTGGTTNYGDSVKGRFTISRDNAKNTVYLQMNSLKPEDTAVYYCNVLVISGIGSHLEVWG
5. A18-1-44 (VHH) VHH: EVQLVESGGGLVQPGGSLRLSCAASGSIFNLPVMSWYRQAPGKQRELVAGISTGGTTNYGDSVKGRFTISRDNAKNTVYLQMNSLKPEDTAVYYCNVLVISGIGSHLEVWG

1: 2430 MFI; 2: 1970 MFI; 3: 3890 MFI; 4: 2940 MFI; 5: 3740 MFI
